Tested on: NCI-H1341 complex spheroids, percent test/control
Assay: Anticancer human tumor NCI-H1341 cell line growth inhibition [AhR]; active = viability on the fitted dose curve at most 10% of control; inactive = the rest;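 also: spheroids exposed to agents for seven days before readout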
Conditions: second compound 3.16 µM; first compound 3.16 µM
I would appreciate it if you answered using one of these outcomes: True = active, False = inactive

Enquiry: Look up the recorded call for NS(=O)(=O)OCC1CC(n2ccc3c(NC4CCc5ccccc54)ncnc32)CC1O (configuration not stated) + CC(CO)NC(=O)c1cc(-c2ccc(Cl)cc2)nn(-c2cnn(C)c2)c1=O in this test.
Return: True

Enquiry: Look up the recorded call for COc1ccc([C@@H](O)c2cc(-c3ncnc4cc(N5CCOCC5)ccc34)c(F)cc2Cl)nn1 + Cc1ccccc1N=Nc1ccc(NC(=O)c2ccnn2C)c(C)c1 in this test.
Return: False

Enquiry: Look up the recorded call for O=C(C=Cc1cccc(S(=O)(=O)Nc2ccccc2)c1)NO + Cc1cncc(-c2nc(NCCc3c[nH]c4ccccc34)c3ncn(C(C)C)c3n2)c1 in this test.
Return: True

Enquiry: Look up the recorded call for Nc1ccn(C2OC(CO)C(O)C2(F)F)c(=O)n1 (configuration not stated) + Cc1cncc(-c2nc(NCCc3c[nH]c4ccccc34)c3ncn(C(C)C)c3n2)c1 in this test.
Return: False

Enquiry: Look up the recorded call for O=C(c1cc(Cc2n[nH]c(=O)c3ccccc23)ccc1F)N1CCN(C(=O)C2CC2)CC1 + CC(CO)NC(=O)c1cc(-c2ccc(Cl)cc2)nn(-c2cnn(C)c2)c1=O in this test.
Return: False

Enquiry: Look up the recorded call for CC(C)c1c(-c2ccccc2)nc2c(C#N)c[nH]n2c1=O + Cc1ccccc1N=Nc1ccc(NC(=O)c2ccnn2C)c(C)c1 in this test.
Return: False

Enquiry: Look up the recorded call for O=C(C=Cc1cccc(S(=O)(=O)Nc2ccccc2)c1)NO + Cc1ccccc1N=Nc1ccc(NC(=O)c2ccnn2C)c(C)c1 in this test.
Return: True

Enquiry: Look up the recorded call for COc1cccc2c1C(=O)c1c(O)c3c(c(O)c1C2=O)CC(O)(C(=O)CO)CC3OC1CC(N)C(O)C(C)O1 (configuration not stated) + CC(CO)NC(=O)c1cc(-c2ccc(Cl)cc2)nn(-c2cnn(C)c2)c1=O in this test.
Return: True

Enquiry: Look up the recorded call for Nc1ccccc1NC(=O)c1ccc(CNC(=O)OCc2cccnc2)cc1 + Cc1cncc(-c2nc(NCCc3c[nH]c4ccccc34)c3ncn(C(C)C)c3n2)c1 in this test.
Return: True

Enquiry: Look up the recorded call for COc1cc(Nc2ncc3c(n2)-c2ccc(Cl)cc2C(c2c(F)cccc2OC)=NC3)ccc1C(=O)O + CC(CO)NC(=O)c1cc(-c2ccc(Cl)cc2)nn(-c2cnn(C)c2)c1=O in this test.
Return: False

Enquiry: Look up the recorded call for CC1(C)CCC(CN2CCN(c3ccc(C(=O)NS(=O)(=O)c4ccc(NCC5CCOCC5)c([N+](=O)[O-])c4)c(Oc4cnc5[nH]ccc5c4)c3)CC2)=C(c2ccc(Cl)cc2)C1 + Cc1ccccc1N=Nc1ccc(NC(=O)c2ccnn2C)c(C)c1 in this test.
Return: False

Enquiry: Look up the recorded call for COc1cccc2c1C(=O)c1c(O)c3c(c(O)c1C2=O)CC(O)(C(=O)CO)CC3OC1CC(N)C(O)C(C)O1 (configuration not stated) + Cc1ccccc1N=Nc1ccc(NC(=O)c2ccnn2C)c(C)c1 in this test.
Return: True

---

System: NCI-H1341 complex spheroids, percent test/control
Assay: Anticancer human tumor NCI-H1341 cell line growth inhibition [AhR];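 also: spheroids exposed to agents for seven days before readout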
Conditions: second compound 3.16 µM; first compound 0.0316 µM; stronger effect = lower value
Assign viability, T/C to each entry below.
State just the number; it will be interpreted in %.

Memo: Nc1ncn(C2CC(O)C(CO)O2)c(=O)n1 (stereo not drawn) + CC(CO)NC(=O)c1cc(-c2ccc(Cl)cc2)nn(-c2cnn(C)c2)c1=O , reported viability, T/C: 67.1

Memo: CC[C@@]1(O)C(=O)OCc2c1cc1n(c2=O)Cc2cc3c(CN(C)C)c(O)ccc3nc2-1 + CC(CO)NC(=O)c1cc(-c2ccc(Cl)cc2)nn(-c2cnn(C)c2)c1=O , reported viability, T/C: 49.5

Memo: COc1cccc2c1C(=O)c1c(O)c3c(c(O)c1C2=O)CC(O)(C(=O)CO)CC3OC1CC(N)C(O)C(C)O1 (stereo not drawn) + Cc1ccccc1N=Nc1ccc(NC(=O)c2ccnn2C)c(C)c1 , reported viability, T/C: 50.1

---

Assign IC50 to each entry below.
System: NCI-H1341 complex spheroids, percent test/control
Assay: Anticancer human tumor NCI-H1341 cell line growth inhibition [AhR];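 also: spheroids exposed to agents for seven days before readout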
Settings: curve of first compound; second compound 1 µM
State just the number; it will be interpreted in µM.

Memo: Nc1ncn(C2CC(O)C(CO)O2)c(=O)n1 (stereo unspecified) + Cc1cncc(-c2nc(NCCc3c[nH]c4ccccc34)c3ncn(C(C)C)c3n2)c1 , reported IC50: 0.0804

Memo: CC1COCCN1c1cc(-c2ccnn2C)c2ccnc(-c3ccn[nH]3)c2n1 (stereo unspecified) + Cc1ccccc1N=Nc1ccc(NC(=O)c2ccnn2C)c(C)c1 , reported IC50: 0.113

Memo: CC1(C)CCC(CN2CCN(c3ccc(C(=O)NS(=O)(=O)c4ccc(NCC5CCOCC5)c([N+](=O)[O-])c4)c(Oc4cnc5[nH]ccc5c4)c3)CC2)=C(c2ccc(Cl)cc2)C1 + Cc1ccccc1N=Nc1ccc(NC(=O)c2ccnn2C)c(C)c1 , reported IC50: 1.99

---

Assign viability, T/C to each entry below.
Test system: NCI-H1341 complex spheroids, percent test/control
Test: Anticancer human tumor NCI-H1341 cell line growth inhibition [AhR];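 also: spheroids exposed to agents for seven days before readout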
Conditions: second compound 0.316 µM; first compound 0.03 µM; stronger effect = lower value
State just the number; it will be interpreted in %.

Memo: O=C(C=Cn1cnc(-c2cc(C(F)(F)F)cc(C(F)(F)F)c2)n1)NNc1cnccn1 + Cc1ccccc1N=Nc1ccc(NC(=O)c2ccnn2C)c(C)c1 , reported viability, T/C: 59

Memo: CCc1c2c(nc3ccc(O)cc13)-c1cc3c(c(=O)n1C2)COC(=O)[C@]3(O)CC + CC(CO)NC(=O)c1cc(-c2ccc(Cl)cc2)nn(-c2cnn(C)c2)c1=O , reported viability, T/C: 33.4

Memo: CC(C)CC(NC(=O)C(Cc1ccccc1)NC(=O)c1cnccn1)B(O)O (configuration not stated) + CC(CO)NC(=O)c1cc(-c2ccc(Cl)cc2)nn(-c2cnn(C)c2)c1=O , reported viability, T/C: 0.06

Memo: Nc1ncn(C2CC(O)C(CO)S2)c(=O)n1 (configuration not stated) + Cc1ccccc1N=Nc1ccc(NC(=O)c2ccnn2C)c(C)c1 , reported viability, T/C: 87.7

Memo: Nc1ncn(C2CC(O)C(CO)S2)c(=O)n1 (configuration not stated) + CC(CO)NC(=O)c1cc(-c2ccc(Cl)cc2)nn(-c2cnn(C)c2)c1=O , reported viability, T/C: 89.8

Memo: Nc1ncn(C2CC(O)C(CO)S2)c(=O)n1 (configuration not stated) + Cc1cncc(-c2nc(NCCc3c[nH]c4ccccc34)c3ncn(C(C)C)c3n2)c1 , reported viability, T/C: 73.8

Memo: CCc1c2c(nc3ccc(O)cc13)-c1cc3c(c(=O)n1C2)COC(=O)[C@]3(O)CC + Cc1cncc(-c2nc(NCCc3c[nH]c4ccccc34)c3ncn(C(C)C)c3n2)c1 , reported viability, T/C: 31.8

Memo: CC(C)CC(NC(=O)C(Cc1ccccc1)NC(=O)c1cnccn1)B(O)O (configuration not stated) + Cc1cncc(-c2nc(NCCc3c[nH]c4ccccc34)c3ncn(C(C)C)c3n2)c1 , reported viability, T/C: 0.14

Memo: CCN(c1cc(-c2ccc(CN3CCOCC3)cc2)cc(C(=O)NCc2c(C)cc(C)[nH]c2=O)c1C)C1CCOCC1 + Cc1cncc(-c2nc(NCCc3c[nH]c4ccccc34)c3ncn(C(C)C)c3n2)c1 , reported viability, T/C: 82.3

Memo: CCN(c1cc(-c2ccc(CN3CCOCC3)cc2)cc(C(=O)NCc2c(C)cc(C)[nH]c2=O)c1C)C1CCOCC1 + CC(CO)NC(=O)c1cc(-c2ccc(Cl)cc2)nn(-c2cnn(C)c2)c1=O , reported viability, T/C: 77

Memo: O=C(C=Cn1cnc(-c2cc(C(F)(F)F)cc(C(F)(F)F)c2)n1)NNc1cnccn1 + CC(CO)NC(=O)c1cc(-c2ccc(Cl)cc2)nn(-c2cnn(C)c2)c1=O , reported viability, T/C: 56.4

Memo: CCc1c2c(nc3ccc(O)cc13)-c1cc3c(c(=O)n1C2)COC(=O)[C@]3(O)CC + Cc1ccccc1N=Nc1ccc(NC(=O)c2ccnn2C)c(C)c1 , reported viability, T/C: 49.5

---

System: NCI-H1341 complex spheroids, percent test/control
Experiment: Anticancer human tumor NCI-H1341 cell line growth inhibition [AhR];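 also: spheroids exposed to agents for seven days before readout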
Conditions: second compound 0.316 µM; first compound 10 µM; stronger effect = lower value
Text: Multicellular complex tumor spheroid response to aryl hydrocarbon receptor antagonists in combination with a variety of drugs and investigational agents in selected tumor cell lines […] Compounds. […] If the clinical Cmax for an agent had not been determined, the highest concentration tested was 10 microM (Table 1). […]
OUTCOME MEASURE: viability, T/C

Memo: CC1(C)CCC(CN2CCN(c3ccc(C(=O)NS(=O)(=O)c4ccc(NCC5CCOCC5)c([N+](=O)[O-])c4)c(Oc4cnc5[nH]ccc5c4)c3)CC2)=C(c2ccc(Cl)cc2)C1 + CC(CO)NC(=O)c1cc(-c2ccc(Cl)cc2)nn(-c2cnn(C)c2)c1=O , reported viability, T/C: 11.7%

Memo: Nc1ccn(C2OC(CO)C(O)C2(F)F)c(=O)n1 (stereo not drawn) + Cc1cncc(-c2nc(NCCc3c[nH]c4ccccc34)c3ncn(C(C)C)c3n2)c1 , reported viability, T/C: 21.5%

Memo: O=C(C=Cc1cccc(S(=O)(=O)Nc2ccccc2)c1)NO + Cc1ccccc1N=Nc1ccc(NC(=O)c2ccnn2C)c(C)c1 , reported viability, T/C: 0.82%

Memo: COc1ccc([C@@H](O)c2cc(-c3ncnc4cc(N5CCOCC5)ccc34)c(F)cc2Cl)nn1 + CC(CO)NC(=O)c1cc(-c2ccc(Cl)cc2)nn(-c2cnn(C)c2)c1=O , reported viability, T/C: 8.73%

Memo: COc1ccc([C@@H](O)c2cc(-c3ncnc4cc(N5CCOCC5)ccc34)c(F)cc2Cl)nn1 + Cc1ccccc1N=Nc1ccc(NC(=O)c2ccnn2C)c(C)c1 , reported viability, T/C: 8.42%

Memo: COc1cc(Nc2ncc3c(n2)-c2ccc(Cl)cc2C(c2c(F)cccc2OC)=NC3)ccc1C(=O)O + Cc1ccccc1N=Nc1ccc(NC(=O)c2ccnn2C)c(C)c1 , reported viability, T/C: 25.2%

Memo: Nc1ccccc1NC(=O)c1ccc(CNC(=O)OCc2cccnc2)cc1 + Cc1cncc(-c2nc(NCCc3c[nH]c4ccccc34)c3ncn(C(C)C)c3n2)c1 , reported viability, T/C: 0.6%

Memo: Nc1ccn(C2OC(CO)C(O)C2(F)F)c(=O)n1 (stereo not drawn) + CC(CO)NC(=O)c1cc(-c2ccc(Cl)cc2)nn(-c2cnn(C)c2)c1=O , reported viability, T/C: 24.1%

Memo: O=C(c1cc(Cc2n[nH]c(=O)c3ccccc23)ccc1F)N1CCN(C(=O)C2CC2)CC1 + CC(CO)NC(=O)c1cc(-c2ccc(Cl)cc2)nn(-c2cnn(C)c2)c1=O , reported viability, T/C: 72.7%

Memo: COc1cccc2c1C(=O)c1c(O)c3c(c(O)c1C2=O)CC(O)(C(=O)CO)CC3OC1CC(N)C(O)C(C)O1 (stereo not drawn) + Cc1cncc(-c2nc(NCCc3c[nH]c4ccccc34)c3ncn(C(C)C)c3n2)c1 , reported viability, T/C: 4.49%

Memo: CC(C)c1c(-c2ccccc2)nc2c(C#N)c[nH]n2c1=O + CC(CO)NC(=O)c1cc(-c2ccc(Cl)cc2)nn(-c2cnn(C)c2)c1=O , reported viability, T/C: 73%

Memo: CC(C)c1c(-c2ccccc2)nc2c(C#N)c[nH]n2c1=O + Cc1ccccc1N=Nc1ccc(NC(=O)c2ccnn2C)c(C)c1 , reported viability, T/C: 83.2%

Memo: CC1(C)CCC(CN2CCN(c3ccc(C(=O)NS(=O)(=O)c4ccc(NCC5CCOCC5)c([N+](=O)[O-])c4)c(Oc4cnc5[nH]ccc5c4)c3)CC2)=C(c2ccc(Cl)cc2)C1 + Cc1ccccc1N=Nc1ccc(NC(=O)c2ccnn2C)c(C)c1 , reported viability, T/C: 14.3%

Memo: CC1COCCN1c1cc(C2(S(C)(=N)=O)CC2)nc(-c2ccnc3[nH]ccc23)n1 (stereo not drawn) + Cc1ccccc1N=Nc1ccc(NC(=O)c2ccnn2C)c(C)c1 , reported viability, T/C: 31.1%

Memo: COc1cc(Nc2ncc3c(n2)-c2ccc(Cl)cc2C(c2c(F)cccc2OC)=NC3)ccc1C(=O)O + CC(CO)NC(=O)c1cc(-c2ccc(Cl)cc2)nn(-c2cnn(C)c2)c1=O , reported viability, T/C: 27.6%

Memo: COc1cccc2c1C(=O)c1c(O)c3c(c(O)c1C2=O)CC(O)(C(=O)CO)CC3OC1CC(N)C(O)C(C)O1 (stereo not drawn) + Cc1ccccc1N=Nc1ccc(NC(=O)c2ccnn2C)c(C)c1 , reported viability, T/C: 4.21%

Memo: COc1cccc2c1C(=O)c1c(O)c3c(c(O)c1C2=O)CC(O)(C(=O)CO)CC3OC1CC(N)C(O)C(C)O1 (stereo not drawn) + CC(CO)NC(=O)c1cc(-c2ccc(Cl)cc2)nn(-c2cnn(C)c2)c1=O , reported viability, T/C: 2.4%

Memo: O=C(c1cc(Cc2n[nH]c(=O)c3ccccc23)ccc1F)N1CCN(C(=O)C2CC2)CC1 + Cc1cncc(-c2nc(NCCc3c[nH]c4ccccc34)c3ncn(C(C)C)c3n2)c1 , reported viability, T/C: 63%

Memo: COc1cc(C2c3cc4c(cc3C(OC3OC5COC(C)OC5C(O)C3O)C3COC(=O)C23)OCO4)cc(OC)c1O (stereo not drawn) + Cc1cncc(-c2nc(NCCc3c[nH]c4ccccc34)c3ncn(C(C)C)c3n2)c1 , reported viability, T/C: 34.2%

Memo: CC(C)c1c(-c2ccccc2)nc2c(C#N)c[nH]n2c1=O + Cc1cncc(-c2nc(NCCc3c[nH]c4ccccc34)c3ncn(C(C)C)c3n2)c1 , reported viability, T/C: 72.5%

Memo: NS(=O)(=O)OCC1CC(n2ccc3c(NC4CCc5ccccc54)ncnc32)CC1O (stereo not drawn) + Cc1ccccc1N=Nc1ccc(NC(=O)c2ccnn2C)c(C)c1 , reported viability, T/C: 6.89%

Memo: CC1(C)CCC(CN2CCN(c3ccc(C(=O)NS(=O)(=O)c4ccc(NCC5CCOCC5)c([N+](=O)[O-])c4)c(Oc4cnc5[nH]ccc5c4)c3)CC2)=C(c2ccc(Cl)cc2)C1 + Cc1cncc(-c2nc(NCCc3c[nH]c4ccccc34)c3ncn(C(C)C)c3n2)c1 , reported viability, T/C: 78.1%

Memo: O=C(C=Cc1cccc(S(=O)(=O)Nc2ccccc2)c1)NO + CC(CO)NC(=O)c1cc(-c2ccc(Cl)cc2)nn(-c2cnn(C)c2)c1=O , reported viability, T/C: 0.46%
